target: PD-1 (UniProt Q15116 25-167, limits assumed); experiment: ELISA, OD mutant/OD WT; A=90-110%
Sequence (Q15116 25-167 limits assumed): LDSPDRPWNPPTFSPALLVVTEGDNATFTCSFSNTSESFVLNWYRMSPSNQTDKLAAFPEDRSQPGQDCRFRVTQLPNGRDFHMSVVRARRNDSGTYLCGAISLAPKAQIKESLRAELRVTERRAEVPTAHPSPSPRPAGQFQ
METRIC: binding activity (OD after mutation/OD wild type)

anti-PD-1 antibody 2 heavy chain G66C (antibody, human IgG4 S228P, kappa, V domains shown) VH: QVQLVESGGGVVQPGRSLRLDCKASGITFSNSGMHWVRQAPGKGLEWVAVIWYDGSKRYYADSVKCRFTISRDNSKNTLFLQMNSLRAEDTAVYYCATNDDYWGQGTLVTVSS VL: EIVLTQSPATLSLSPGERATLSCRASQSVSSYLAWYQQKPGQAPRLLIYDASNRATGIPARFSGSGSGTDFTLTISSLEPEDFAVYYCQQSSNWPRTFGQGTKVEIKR
90 to 110%
anti-PD-1 antibody 2 heavy chain G55C (antibody, human IgG4 S228P, kappa, V domains shown) VH: QVQLVESGGGVVQPGRSLRLDCKASGITFSNSGMHWVRQAPGKGLEWVAVIWYDCSKRYYADSVKGRFTISRDNSKNTLFLQMNSLRAEDTAVYYCATNDDYWGQGTLVTVSS VL: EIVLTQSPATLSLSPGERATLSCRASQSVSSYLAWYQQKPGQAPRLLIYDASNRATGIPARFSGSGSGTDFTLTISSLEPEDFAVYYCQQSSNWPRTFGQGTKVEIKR
90 to 110%
anti-PD-1 antibody 2 heavy chain S30C (antibody, human IgG4 S228P, kappa, V domains shown) VH: QVQLVESGGGVVQPGRSLRLDCKASGITFCNSGMHWVRQAPGKGLEWVAVIWYDGSKRYYADSVKGRFTISRDNSKNTLFLQMNSLRAEDTAVYYCATNDDYWGQGTLVTVSS VL: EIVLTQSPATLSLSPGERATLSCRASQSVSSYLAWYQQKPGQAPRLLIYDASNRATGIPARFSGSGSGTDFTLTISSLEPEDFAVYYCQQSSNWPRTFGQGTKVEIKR
90 to 110%

// data source = patent US20230158141A1
